Can you tell me log10(Ki) for the items I'm about to list?
- target_system: Bifunctional dihydrofolate reductase-thymidylate synthase (Plasmodium falciparum K1, UniProt P13922, C59R/I164L/S108N)
- Sequence (P13922 whole entry, looked up, stated change not applied): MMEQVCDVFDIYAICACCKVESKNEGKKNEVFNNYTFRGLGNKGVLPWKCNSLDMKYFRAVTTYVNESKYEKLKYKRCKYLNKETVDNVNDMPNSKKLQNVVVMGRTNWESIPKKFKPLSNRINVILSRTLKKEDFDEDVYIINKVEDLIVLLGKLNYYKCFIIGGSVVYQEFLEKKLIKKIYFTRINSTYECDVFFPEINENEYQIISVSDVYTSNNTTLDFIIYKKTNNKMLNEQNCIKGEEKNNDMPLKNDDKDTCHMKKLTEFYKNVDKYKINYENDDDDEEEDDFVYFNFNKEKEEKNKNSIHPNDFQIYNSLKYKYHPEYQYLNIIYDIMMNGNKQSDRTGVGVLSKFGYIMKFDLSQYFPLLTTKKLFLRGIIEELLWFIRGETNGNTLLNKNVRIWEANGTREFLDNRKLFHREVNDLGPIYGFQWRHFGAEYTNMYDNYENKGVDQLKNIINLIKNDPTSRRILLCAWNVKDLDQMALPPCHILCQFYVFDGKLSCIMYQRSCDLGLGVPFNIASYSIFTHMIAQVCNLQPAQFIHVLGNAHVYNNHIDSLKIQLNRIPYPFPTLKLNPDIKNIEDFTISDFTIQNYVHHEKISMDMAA
- measurement_notes: Inhibition constant against PfDHFR (Plasmodium falciparum dihydrofolate reductase) with triple (C59R + S108N + I164L) mutations
The figures below represent log10 of Ki, where Ki is stated in µM.

Documented log10(Ki) of `C/C(=N\N=C(/N)S)c1ccc(Oc2c(Cl)cncc2Cl)cc1` : -0.22

Documented log10(Ki) of `C=CCNC(=S)NNC(=O)c1cccn(Cc2cccc(Cl)c2)c1=O` : 1.00

Documented log10(Ki) of `NC(=S)N/N=C/c1ccccc1` : 1.46

Documented log10(Ki) of `N=C(S)N/N=C/c1ccc(Oc2ncc(C(F)(F)F)cc2Cl)cc1` : 1.10

Documented log10(Ki) of `N=C(NO)c1ccc(Oc2cc(Cl)cc(Cl)c2)c([N+](=O)[O-])c1` : 1.35

Documented log10(Ki) of `N/N=C(\S)Nc1ccc(OCc2ccccc2)cc1` : 1.13

The measured values listed here are drawn from ChEMBL document CHEMBL1145823.
